Tested on: OVCAR-5 complex spheroids with HUVEC/MSC, viability, % test/control
experiment.notes: Anticancer human tumor OVCAR-5 cell line growth inhibition [AhR];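 also: spheroids exposed to compounds for 7 days; 100% = DMSO vehicle control wells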
study.conditions: second compound 3.16 µM; first compound 0.3 µM; stronger effect = lower value
I'd appreciate it if you marked entries 1 when viability, T/C is lower than 8% and 0 when it is not.

>>> group("CCc1c2c(nc3ccc(O)cc13)-c1cc3c(c(=O)n1C2)COC(=O)[C@]3(O)CC + Cc1cncc(-c2nc(NCCc3c[nH]c4ccccc34)c3ncn(C(C)C)c3n2)c1")
0
>>> group("CCN(c1cc(-c2ccc(CN3CCOCC3)cc2)cc(C(=O)NCc2c(C)cc(C)[nH]c2=O)c1C)C1CCOCC1 + CC(CO)NC(=O)c1cc(-c2ccc(Cl)cc2)nn(-c2cnn(C)c2)c1=O")
0
>>> group("O=C(C=Cn1cnc(-c2cc(C(F)(F)F)cc(C(F)(F)F)c2)n1)NNc1cnccn1 + CC(CO)NC(=O)c1cc(-c2ccc(Cl)cc2)nn(-c2cnn(C)c2)c1=O")
0
>>> group("CCc1c2c(nc3ccc(O)cc13)-c1cc3c(c(=O)n1C2)COC(=O)[C@]3(O)CC + CC(CO)NC(=O)c1cc(-c2ccc(Cl)cc2)nn(-c2cnn(C)c2)c1=O")
1
>>> group("Nc1ncn(C2CC(O)C(CO)S2)c(=O)n1 (stereo unspecified) + CC(CO)NC(=O)c1cc(-c2ccc(Cl)cc2)nn(-c2cnn(C)c2)c1=O")
0
>>> group("CC(C)CC(NC(=O)C(Cc1ccccc1)NC(=O)c1cnccn1)B(O)O (stereo unspecified) + Cc1cncc(-c2nc(NCCc3c[nH]c4ccccc34)c3ncn(C(C)C)c3n2)c1")
0
